Experiment: qHTS assay to identify small molecule antagonists of the estrogen receptor alpha (ER-alpha) signaling pathway - cell viability counter screen (AID 743074);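 also: HEK293 cells carrying ER-alpha-UAS-bla reporter stimulated with 17beta-estradiol; nearly all actives have a fitted effect of over 45% in size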
Conditions: ERalpha-bla HEK293 viability, CellTiter-Glo luminescence, 18 h; series mostly up to 69.4 µM
Records with an inconclusive call do not appear. Active and inactive are the calls of the source. Calls follow the shape of the full dose curve.
Choose the fitting class; nothing outside true (1) for active, false (0) for inactive is accepted.

Below, 3 molecules whose answers are already recorded.
CN(C)C1CSSSC1 | false (0)
O=[N+]([O-])O.O=[N+]([O-])O.[Cd] | false (0)
CCOc1cc(C(C)(C)C)ccc1C1COC(c2c(F)cccc2F)=N1 (configuration not stated) | false (0)

Just curious, what result did Nc1ccc(Cc2ccc(N)c(Cl)c2)cc1Cl get here?
false (0)

Just curious, what result did CCCCCCCCCCCCCCC(Br)C(=O)O (configuration not stated) get here?
false (0)

Just curious, what result did CCCN(CC)CC1COC2(CCC(C(C)(C)C)CC2)O1 (configuration not stated) get here?
false (0)

Just curious, what result did CCC[CH2][Sn]([CH2]CCC)([CH2]CCC)[O]C(=O)c1ccccc1 get here?
true (1)

Just curious, what result did CC(c1ccc(O)cc1)c1ccc(O)cc1 get here?
false (0)

Just curious, what result did [Hg+2].[I-].[I-] get here?
true (1)

Just curious, what result did CC(C)CCCCCOC(=O)c1ccccc1C(=O)OCCCCCC(C)C get here?
false (0)

Just curious, what result did Cc1cc(C)cc(OP(=O)(Oc2cc(C)cc(C)c2)Oc2cc(C)cc(C)c2)c1 get here?
false (0)

Just curious, what result did O=C(O)c1cc[c]([Hg][Cl])cc1 get here?
false (0)

Just curious, what result did C[C@]12Cc3nonc3C[C@@H]1CC[C@@H]1[C@@H]2CC[C@@]2(C)[C@H]1CC[C@]2(C)O get here?
false (0)

Just curious, what result did BrC(Br)C(Br)(Br)Br get here?
false (0)

Just curious, what result did Clc1ccc(C(Cl)(Cl)Cl)c(Cl)c1 get here?
false (0)

Just curious, what result did C[C@@H]1CC[C@@]2(OC1)O[C@H]1[C@@H](O)[C@H]3[C@@H]4CC[C@H]5C[C@@H](O[C@@H]6O[C@H](CO)[C@H](O[C@@H]7O[C@H](CO)[C@@H](O)[C@H](O[C@@H]8OC[C@@H](O)[C@H](O)[C@H]8O)[C@H]7O[C@@H]7O[C@H](CO)[C@@H](O)[C@H](O[C@@H]8O[C@H](CO)[C@@H](O)[C@H](O)[C@H]8O)[C@H]7O)[C@H](O)[C@H]6O)[C@H](O)C[C@]5(C)[C@H]4CC[C@]3(C)[C@H]1[C@@H]2C get here?
true (1)

Just curious, what result did CC(C)CC(C)Nc1ccc(Nc2ccccc2)cc1 (configuration not stated) get here?
true (1)

Just curious, what result did CC(=O)[O-].CC(=O)[O-].O.O.[Cd+2] get here?
true (1)

Just curious, what result did Cc1cc(N=Nc2ccccc2C)ccc1N get here?
false (0)

Just curious, what result did CC(Cc1ccc(C(C)(C)C)cc1)CN1C[C@@H](C)O[C@@H](C)C1 (some centres not stated) get here?
false (0)

Just curious, what result did O=C(O)C1C2CCC(O2)C1C(=O)O (configuration not stated) get here?
false (0)

Just curious, what result did COP(=O)(OC)SCn1c(=O)oc2cc(Cl)cnc21 get here?
false (0)

----------
Assay: qHTS assay for small molecule agonists of the p53 signaling pathway - cell viability (AID 651633); also: nearly all actives have a fitted effect of over 30% in size
Conditions: p53RE-bla HCT-116 viability, ATP luminescence, 16 h; series mostly up to 83.3 µM
Results filed as inconclusive are left out. Activity calls are given as the source filed them. Calls come from the whole dose curve.
Choose the fitting class; nothing outside active, inactive is accepted.

Below, 5 molecules whose answers are already recorded.
O=C(NC(=O)c1c(F)cccc1F)Nc1cc(Cl)c(OC(F)(F)C(F)F)c(Cl)c1 | inactive
O=S(=O)(c1ccc(Cl)cc1)c1ccc(Cl)cc1 | inactive
Cc1cc(C)c(C2=C(OC(=O)CC(C)(C)C)C3(CCCC3)OC2=O)c(C)c1 | inactive
FC(Cl)(Cl)Cl | inactive
O=CC(Br)(Br)Br | inactive

Just curious, what result did CC(=O)[O-].CC(=O)[O-].[Hg+2] get here?
active

Just curious, what result did COC12CC[C@@]3(C[C@@H]1C(C)(O)C(C)(C)C)[C@H]1Cc4ccc(O)c5c4[C@@]3(CCN1CC1CC1)[C@H]2O5 (stereo partly drawn) get here?
active

Just curious, what result did Cc1cc(C(C)(C)c2cc(C)c(O)c(C)c2)cc(C)c1O get here?
active

Just curious, what result did CC1(C)CN=C(NN=C(/C=C/c2ccc(C(F)(F)F)cc2)/C=C/c2ccc(C(F)(F)F)cc2)NC1 get here?
active

----------
Experiment: A CellTox Green Cytotoxicity Assay to monitor cytotoxicity in HepG2 cells - 24 hour (AID 1224878); also: nearly all actives have a fitted effect of over 45% in size
Conditions: CellTox Green fluorescence; series mostly up to 76.8 µM
Results filed as inconclusive are left out. Active and inactive are the calls of the source. Calls come from the whole dose curve; as a rule, active = well fitted activation curve with a large enough effect in the repeat runs; inconclusive = weak or mixed curves; inactive = flat fitted curve, though single readings scatter.
Choose the fitting class; nothing outside active, inactive is accepted.

Below, 3 compounds whose answers are already recorded.
ClCCN1CCOCC1 | inactive
O=C(CCCN1CCC2(CC1)C(=O)NCN2c1ccccc1)c1ccc(F)cc1 | inactive
Cc1ccc(CCl)cc1 | inactive

Just curious, what result did Clc1ccc(C(c2ccc(Cl)cc2)C(Cl)(Cl)Cl)cc1 get here?
inactive

Just curious, what result did CCCCCCCCCCCCCC[P+](CCCCCC)(CCCCCC)CCCCCC (tested in a mixture with another compound) get here?
active

Just curious, what result did CCOP(=S)(OCC)SCCS(=O)(=O)CC get here?
inactive

----------
Assay: qHTS assay to identify small molecule agonists of the vitamin D receptor (VDR) signaling pathway - cell viability counter screen (AID 743224); also: nearly all actives have a fitted effect of over 50% in size; also: potency is read from the fitted curve at half-maximal effect
Details: VDR-bla HEK293T viability, CellTiter-Glo luminescence, 16 h; series mostly up to 62.6 µM
Results filed as inconclusive are left out. Calls of active or inactive are those of the source. Calls come from the whole dose curve; as a rule, active = well fitted cell-killing curve with a large enough effect in the repeat runs; inconclusive = weak or mixed curves, or effect the other way; inactive = no such curve, though single readings can be large or run the other way.
recordedMetric: Potency

Consider the worked cases shown below.
CCc1nn(C)c(C(=O)NCc2ccc(C(C)(C)C)cc2)c1Cl | 27.5 µM (active)
CC(=O)[O-].CC(=O)[O-].O.O.[Cd+2] | 1.21 µM (active)
O=[N+]([O-])O.O=[N+]([O-])O.[Cd] | 1.74 µM (active)
O=C(O)c1cc[c]([Hg][Cl])cc1 | 24.5 µM (active)
C=CC(=O)OCC(COC(=O)C=C)(COC(=O)C=C)COC(=O)C=C | 7.76 µM (active)

What the record says about CC(=O)[O-].CC(=O)[O-].[Hg+2] : Potency is 1.74 µM (active)

What the record says about Cc1ccc(OP(=O)(Oc2ccccc2)Oc2ccccc2)cc1 : Potency is inactive

What the record says about FC(Cl)(Cl)Cl : Potency is inactive

What the record says about CCC[CH2][Sn]([CH2]CCC)([CH2]CCC)[O]C(=O)c1ccccc1 : Potency is 0.692 µM (active)

What the record says about CC1(C)CN=C(NN=C(/C=C/c2ccc(C(F)(F)F)cc2)/C=C/c2ccc(C(F)(F)F)cc2)NC1 : Potency is 6.92 µM (active)

What the record says about Oc1ccc(C2(c3ccc(O)cc3)CCCCC2)cc1 : Potency is 46.4 µM (active)

What the record says about c1ccc2cc3c(cc2c1)-c1cccc2cccc-3c12 : Potency is inactive

----------
Test: qHTS assay to identify small molecule agonists of the progesterone receptor (PR) signaling pathway - cell viability counter screen (AID 1346799); also: nearly all actives have a fitted effect of over 45% in size
Details: PR-UAS-bla HEK293T viability, CellTiter-Glo luminescence, 16 h; series mostly up to 92.4 µM
Source text: National Center for Advancing Translational Sciences [NCATS] NIH Chemical Genomics Center [NCGC] U.S. Environmental Protection Agency [EPA] National Institutes of Environmental Health Sciences [NIEHS] National Toxicology Program [NTP] U.S. Food and Drug Administration [FDA] Progesterone receptor (PR), a nuclear hormone receptor, plays an important role in development, metabolic homeostasis and reproduction. It is activated by the steroid hormone progesterone. […]
Records with an inconclusive call do not appear. The source made the active and inactive calls. Calls come from the whole dose curve.
Choose the fitting class; nothing outside active, inactive is accepted.

N#Cc1ccccc1N | inactive

Just curious, what result did N#CCCO get here?
inactive

Just curious, what result did Oc1ccc(I)cc1 get here?
inactive

----------
Target: Estrogen receptor (Homo sapiens) (UniProt P03372)
Sequence (P03372 whole entry, looked up): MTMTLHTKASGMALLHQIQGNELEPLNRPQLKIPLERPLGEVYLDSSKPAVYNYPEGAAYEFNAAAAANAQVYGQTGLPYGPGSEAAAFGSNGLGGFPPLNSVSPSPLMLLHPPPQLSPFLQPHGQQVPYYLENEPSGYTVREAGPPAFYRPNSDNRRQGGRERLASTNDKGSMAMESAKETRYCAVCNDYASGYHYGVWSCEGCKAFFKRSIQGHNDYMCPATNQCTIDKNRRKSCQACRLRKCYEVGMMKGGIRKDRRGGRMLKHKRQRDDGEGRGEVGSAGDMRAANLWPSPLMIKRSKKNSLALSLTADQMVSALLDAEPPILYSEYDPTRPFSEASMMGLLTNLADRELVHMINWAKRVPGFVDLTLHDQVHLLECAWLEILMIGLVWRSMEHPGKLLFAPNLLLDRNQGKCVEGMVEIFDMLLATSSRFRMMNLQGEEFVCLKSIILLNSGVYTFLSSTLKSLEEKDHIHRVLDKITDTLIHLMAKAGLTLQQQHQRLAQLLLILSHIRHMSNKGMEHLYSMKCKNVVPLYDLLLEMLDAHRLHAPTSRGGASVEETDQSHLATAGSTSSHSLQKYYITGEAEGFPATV
Assay: qHTS assay to identify small molecule agonists of the estrogen receptor alpha (ER-alpha) signaling pathway using the BG1 cell line (AID 743079); also: nearly all actives have a fitted effect of over 20% in size
Conditions: BG1Luc4E2 cells, ERE-luciferase agonist, 22 h; series mostly up to 70.3 µM
Inconclusive results are not listed. Calls of active or inactive are those of the source. Calls come from the whole dose curve; as a rule, active = well fitted activation curve with a large enough effect in the repeat runs; inconclusive = weak or mixed curves, or effect the other way; inactive = no such curve, though single readings can be large or run the other way.
Choose the fitting class; nothing outside active, inactive is accepted.

O=c1ssc(Cl)c1Cl | inactive
c1ccc2cc3c(cc2c1)-c1cccc2cccc-3c12 | inactive

Just curious, what result did Fc1ccc(Oc2ccnc3cc(Cl)cc(Cl)c23)cc1 get here?
inactive

Just curious, what result did CC(C)OS(C)(=O)=O get here?
inactive

Just curious, what result did CS(=O)(=O)c1ccc(C(=O)C2C(=O)CCCC2=O)c([N+](=O)[O-])c1 get here?
inactive

Just curious, what result did CCOCCOC(C)=O get here?
inactive

Just curious, what result did CC(C)Oc1cccc(NC(=O)c2ccccc2C(F)(F)F)c1 get here?
inactive

Just curious, what result did O=C1c2ccccc2C(=O)C1C(=O)C(c1ccccc1)c1ccc(Cl)cc1 (centres undefined) get here?
inactive

Just curious, what result did N#C/C=C/C#N get here?
inactive

Just curious, what result did Clc1ccc(-c2ccc(Cl)c(Cl)c2Cl)c(Cl)c1Cl get here?
inactive

Just curious, what result did CCOC(=O)CC(=O)CCl get here?
inactive

Just curious, what result did CC(=O)/C=C/c1ccc2c(c1)OCO2 get here?
inactive

Just curious, what result did Cc1ccc(OP(=O)(Oc2ccccc2)Oc2ccccc2)cc1 get here?
active

Just curious, what result did CC[C@H]1C[C@@H]2C[C@H]3c4[nH]c5ccc(OC)cc5c4CCN(C2)[C@@H]13 get here?
inactive

Just curious, what result did ClCc1ccc(Cl)cc1Cl get here?
inactive

Just curious, what result did Cc1cc(SCc2sc(-c3ccc(C(F)(F)F)c(F)c3)nc2C)ccc1OCC(=O)O get here?
inactive

Just curious, what result did CCC(C)(C)C(=O)OC1=C(c2ccc(Cl)cc2Cl)C(=O)OC12CCCCC2 get here?
active

Just curious, what result did CCCCCCCCCCCCCN1CC(C)OC(C)C1 (centres undefined) get here?
inactive

Just curious, what result did COP(=O)(OC)SCn1c(=O)oc2cc(Cl)cnc21 get here?
inactive

Just curious, what result did Nc1ccccc1C(=O)Oc1ccc2ccccc2c1 get here?
active
